- Test system: ERK phosphorylation (pERK Thr202/Tyr204) in DLD-1 cells (KRAS G13D)
- assay: ERK phosphorylation assay (AlphaLISA SureFire Ultra p-ERK1/2) in DLD-1 cells
- Format: cell-based
- conditions: Homo sapiens, 1 h compound incubation, EGF 50 ng/mL for 10 minutes
readoutName: IC50 (µM)
Express the result in µM but write the number alone.

Reported IC50, compound `Cc1nc(N[C@H](C)c2cccc(C(F)(F)F)c2C)c2cn([C@H]3C[C@H](F)C3)c(=O)cc2n1` : ____ 0.047

----------
- targetDesc: protein-protein interaction between SOS1 and KRAS G12D (Homo sapiens, UniProt Q07889)
- Construct: GST-TEV-SOS1 (564-1049) is purchased from Viva Biotech Ltd; purchased Viva Biotech Ltd. (GST-TEV-SOS1); Xtal BioStructures, Inc. (K-Ras G12D) Lot #X129-110 (K-Ras)
- Sequence (Q07889 564-1049): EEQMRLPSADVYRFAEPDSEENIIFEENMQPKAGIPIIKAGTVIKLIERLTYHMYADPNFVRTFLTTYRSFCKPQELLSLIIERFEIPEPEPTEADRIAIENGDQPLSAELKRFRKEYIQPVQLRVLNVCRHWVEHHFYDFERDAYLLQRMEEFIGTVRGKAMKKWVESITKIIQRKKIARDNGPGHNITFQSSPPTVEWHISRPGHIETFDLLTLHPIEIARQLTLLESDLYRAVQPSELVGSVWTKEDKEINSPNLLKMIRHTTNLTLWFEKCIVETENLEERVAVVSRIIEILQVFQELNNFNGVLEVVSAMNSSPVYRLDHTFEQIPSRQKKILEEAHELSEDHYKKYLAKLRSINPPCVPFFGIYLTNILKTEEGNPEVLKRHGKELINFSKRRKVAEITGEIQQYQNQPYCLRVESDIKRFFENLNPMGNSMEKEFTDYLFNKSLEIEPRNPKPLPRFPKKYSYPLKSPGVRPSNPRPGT
- assay: KRAS::SOS1 AlphaScreen binding assay
- conditions: KRAS::SOS1 AlphaScreen, KRAS G12D; IC50, tables 20 and 24
Provide the recorded IC50 for the entries that follow.
Express the result in µM but write the number alone.

Which measured IC50 belongs to `Cc1nc(N[C@H](C)c2cccc(C(F)(F)F)c2C)c2cn([C@H]3C[C@H](F)C3)c(=O)cc2n1` , tested on protein-protein interaction between SOS1 and KRAS G12D (Homo sapiens, UniProt Q07889)? 0.011

Which measured IC50 belongs to `C[C@@H](Nc1ncnc2cc(=O)n(C34CC(F)(C3)C4)cc12)c1cccc(C(C)(F)F)c1F` , tested on protein-protein interaction between SOS1 and KRAS G12D (Homo sapiens, UniProt Q07889)? 0.009

Which measured IC50 belongs to `Cc1c(=O)n(C2(C)CC2)cc2c(N[C@H](C)c3cccc(C(F)(F)F)c3)ncnc12` , tested on protein-protein interaction between SOS1 and KRAS G12D (Homo sapiens, UniProt Q07889)? 0.018
